Reference source for all entries: paper PMC8777605

Test: Pharmacokinetics in plasma and lungs after oral dosing
Type: in vivo, Swiss–Webster mice
Settings: Swiss-Webster, mouse; plasma, mice, 60 mg/kg oral
Description: Each treatment group had five animals. After these periods of times, total blood and lungs were collected. Plasma was obtained by blood centrifugation at 8000× g for 15 min. Time zero was obtained by analyzing the matrix pool (blood plasma) of untreated animals. The pharmacokinetic parameters of half-life (t1/2, h), time until maximum concentration is reached (tmax, h), maximum compound concentration (Cmax, ng/mL) and area under the curve (AUC, h.ng/mL) were determined. […]
readoutLabel: Cmax (µg/mL)

[
  {
    "compound": "COC(=O)N[C@H](C(=O)N[C@@H](Cc1ccccc1)[C@@H](O)CN(Cc1ccc(-c2ccccn2)cc1)NC(=O)[C@@H](NC(=O)OC)C(C)(C)C)C(C)(C)C",
    "valueReported": 7.43
  }
]

====

assay: Cytotoxic assay; type: cell-based; settings: African green monkey, table title says Calu-3 cells, method says Vero cells

[
  {
    "compound": "CCC(CC)COC(=O)[C@H](C)N[P@](=O)(OC[C@H]1O[C@@](C#N)(c2ccc3c(N)ncnn23)[C@H](O)[C@@H]1O)Oc1ccccc1 [RDV, remdesivir]",
    "CC50 at 3 days / µM": 512
  },
  {
    "compound": "COC(=O)N[C@H](C(=O)N[C@@H](Cc1ccccc1)[C@@H](O)CN(Cc1ccc(-c2ccccn2)cc1)NC(=O)[C@@H](NC(=O)OC)C(C)(C)C)C(C)(C)C [ATV, atazanavir]",
    "CC50 at 3 days / µM": 312
  }
]

====

test system: SARS-CoV-2 B.1 lineage; assay: microbe, parasite or virus in culture; type: cell-based; conditions: Severe acute respiratory syndrome coronavirus 2, Calu-3, 48 h
pEC50: −log10 of the molar value.
readoutLabel: pEC50

[
  {
    "compound": "COC(=O)N[C@H](C(=O)N[C@@H](Cc1ccccc1)[C@@H](O)CN(Cc1ccc(-c2ccccn2)cc1)NC(=O)[C@@H](NC(=O)OC)C(C)(C)C)C(C)(C)C",
    "readoutLabel": "pEC50",
    "valueReported": 6.31
  }
]

====

assay: Pharmacokinetics in plasma and lungs after oral dosing; format: in vivo, Swiss–Webster mice; conditions: Swiss-Webster, mouse; plasma, mice, 60 mg/kg oral

[
  {
    "compound": "COC(=O)N[C@H](C(=O)N[C@@H](Cc1ccccc1)[C@@H](O)CN(Cc1ccc(-c2ccccn2)cc1)NC(=O)[C@@H](NC(=O)OC)C(C)(C)C)C(C)(C)C",
    "AUC, ng·h/mL": 14300
  }
]

====

molecular target: UniProtKB P0DTD1
pKi: −log10 of the molar value.
readoutLabel: pKi

[
  {
    "compound": "COC(=O)N[C@H](C(=O)N[C@@H](Cc1ccccc1)[C@@H](O)CN(Cc1ccc(-c2ccccn2)cc1)NC(=O)[C@@H](NC(=O)OC)C(C)(C)C)C(C)(C)C",
    "assayedTarget": "UniProtKB P0DTD1",
    "valueReported": 5.01
  }
]

====

test: Pharmacokinetics in plasma and lungs after oral dosing; type: in vivo, Swiss–Webster mice; conditions: Swiss-Webster, mouse; plasma, mice, 60 mg/kg oral
readoutLabel: Tmax (h)

[
  {
    "compound": "COC(=O)N[C@H](C(=O)N[C@@H](Cc1ccccc1)[C@@H](O)CN(Cc1ccc(-c2ccccn2)cc1)NC(=O)[C@@H](NC(=O)OC)C(C)(C)C)C(C)(C)C [ATV, atazanavir]",
    "readoutLabel": "Tmax",
    "resultUnit": "h",
    "valueReported": 1
  }
]
